Below is a list of entries, each paired with its recorded IC50 value.
- target-or-test-system: human SGLT2 (Homo sapiens, UniProt P31639)
- Sequence (P31639 1-672): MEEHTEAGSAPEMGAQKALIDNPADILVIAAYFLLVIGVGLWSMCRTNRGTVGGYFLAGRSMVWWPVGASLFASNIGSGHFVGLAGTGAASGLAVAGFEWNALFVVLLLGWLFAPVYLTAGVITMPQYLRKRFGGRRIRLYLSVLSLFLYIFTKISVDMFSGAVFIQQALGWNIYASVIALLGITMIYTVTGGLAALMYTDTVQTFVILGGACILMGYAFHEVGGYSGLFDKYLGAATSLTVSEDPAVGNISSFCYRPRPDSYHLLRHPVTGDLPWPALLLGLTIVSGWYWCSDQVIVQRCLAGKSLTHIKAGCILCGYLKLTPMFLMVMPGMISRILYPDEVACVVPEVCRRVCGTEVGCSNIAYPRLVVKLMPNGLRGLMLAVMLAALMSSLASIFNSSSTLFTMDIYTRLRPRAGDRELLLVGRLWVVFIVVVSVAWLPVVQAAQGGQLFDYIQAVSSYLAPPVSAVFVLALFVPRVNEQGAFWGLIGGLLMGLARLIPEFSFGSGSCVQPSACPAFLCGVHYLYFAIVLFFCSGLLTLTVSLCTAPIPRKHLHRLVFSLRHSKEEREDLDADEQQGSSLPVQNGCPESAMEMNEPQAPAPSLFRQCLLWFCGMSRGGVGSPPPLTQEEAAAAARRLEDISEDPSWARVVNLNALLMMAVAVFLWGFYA
- test-details: SGLT2 assay: Na-dependent 14C-AMG uptake in CHO-K1 cells stably expressing human SGLT2
- condition: average if tested more than once
Note: unit µM is implicit; provide only the numeric part.

Past entries and their recorded results:
COc1cc(O)c(C2OC(C(C)O)C(F)C(O)C2O)cc1Cc1cc2ccccc2s1 (single isomer, unassigned) [Compound 53] :: 0.026
COc1c([C@@H]2O[C@H](CO)[C@@H](F)[C@H](O)[C@H]2O)cc(Cc2ccc3c(c2)N(C)CCC3)c2c1CCO2 :: 0.075
Cc1cc(O)c([C@@H]2O[C@H](CF)[C@@H](F)[C@H](O)[C@H]2O)cc1Cc1cc2ccccc2s1 :: 0.402

Kindly consider the entry below.
Quick one: IC50 of COc1cc(C)c(Cc2cc3c(s2)CCN(C(=O)c2nccs2)C3)cc1[C@@H]1O[C@H](CO)[C@@H](F)[C@H](O)[C@H]1O ?
0.023
